Value source: patent US20130029928A1

experiment-summary: Phase I study CXR1002-001: plasma pharmacokinetics (LC-MS/MS)
Assay type: in vivo, human
assay-setup: human, plasma, oral, 50 mg, Patient 004 Dose 50 mg; 528 hr (Day 23); read-out: Concentration
measurement-label: concentration at 528 h
// return the numeric value with its unit appended

Challenge: concentration at 528 h lookup needed for O=C(O)C(F)(F)C(F)(F)C(F)(F)C(F)(F)C(F)(F)C(F)(F)C(F)(F)F , thanks.
Response given: 50 µM

---

experiment-summary: Phase I study CXR1002-001: plasma pharmacokinetics (LC-MS/MS)
Assay type: in vivo, human
assay-setup: human, plasma, oral, 600 mg, Patient 024, 600 mg, person, plasma, 192 hr (Day 9); read-out: Concentration
Excerpt: PK samples, PD (fasting) samples, blood glucose, and blood triglyceride samples, were taken over a 6-week period. Dose limiting toxicity (DLT) will be based on the toxicity assessments over the first 3-week period of the repeat dosing schedule. […]
measurement-label: concentration at 192 h (µM)
Answers are plain numbers, in µM.

Challenge: concentration at 192 h lookup needed for O=C(O)C(F)(F)C(F)(F)C(F)(F)C(F)(F)C(F)(F)C(F)(F)C(F)(F)F , thanks.
Response given: 418
